# target-of-assay: T1, hFc-tagged NKG2A/CD94 protein (NKG2A/CD94-hFc), immunogen A (human, UniProt P26715 94-233; Q13241 32-179, biotin-labeled in the Octet assays (site not stated))
# T1 construct: Heterodimer of the extracellular domains of NKG2A and CD94, each with hFc; also called human-derived NKG2A/CD94-ECD-Fc; hNKG2A/CD94-ECD-Fc; not shown: human IgG Fc fragment (hFc) of the pCpC vector
# T1 sequence (P26715 94-233 limits assumed, chain 1 of 2): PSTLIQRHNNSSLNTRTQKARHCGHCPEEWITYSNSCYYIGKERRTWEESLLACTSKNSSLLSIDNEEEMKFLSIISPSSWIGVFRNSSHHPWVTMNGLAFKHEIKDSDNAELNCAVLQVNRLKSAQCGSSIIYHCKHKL
# T1 sequence (Q13241 32-179 limits assumed, chain 2 of 2): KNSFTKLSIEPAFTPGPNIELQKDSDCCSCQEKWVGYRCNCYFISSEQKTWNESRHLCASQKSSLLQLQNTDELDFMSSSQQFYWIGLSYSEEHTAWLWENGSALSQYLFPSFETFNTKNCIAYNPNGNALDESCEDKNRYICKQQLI
# procedure-text: BLI (Octet red96), biotinylated immunogen A on streptavidin sensor, antibody in solution
measured-metric: koff (s⁻¹)
State the answer as a number, implicitly in s⁻¹.

Solved cases below.
binder	display-unit	koff
Mab031 (antibody, V domains shown) VH: EVQLQQSVAELVRPGASVRLSCTGSGFNIQNTYIHWVKQRPEQGLEWIGRIDPANGDTKYAPKFQGKATITADTSSNTAYLQLSSLTSEDTAIYYCTRYGNYLYYYSLDYWGQGTSVTVSS VL: DIVMTQAAPSVPVTPGESVSISCRSSKSLLHSNGNTYLYWFLQRPGQSPQLLIYRMSNLASGVPDRFSGSGSGTAFTLRISRVEAEDMGVYYCMQHLEYPYTFGGGTKLEIK	s⁻¹	1.84e-05
Mpb416 (antibody, V domains shown, also called 12G8 (as full antibody)) VH: QVQLQQSVAELVRPGASVKLSCTASGFNIQNTYIHWVKQRPEQGLEWIGKIDPANGDTKYAPTFQGKATITADTSSNTAYLQLSSLTPEDTAIYYCARYRDYLFYYALGYWGQGTSVTVSS VL: DIVMTQSAPSVPVTPGESVSISCRSSKSLLHSNGNTYLYWFLQRPGQSPQLLIYRMSNLASGVPDRFSGSGSGTAFTLRISRVEAEDVGVYYCMQHLEYPYTFGGGTKLEIK	s⁻¹	1.04e-05
Mab033 (antibody, V domains shown) VH: EVQLQQSVAEFVRPGASVRLSCTASGFNIENTYIHWLKQRPEQGLEWIGRIDPANGDTQYDPKFQGKATLTAATSSNTAYLQLSGLTSEDTAIYYCTRYGDYLFYYSLKYWGQGTSVTVSS VL: DIVMTQAAPSVSVTPGESVSISCRSSKSLLHSNGNTYLYWFLQRPGQSPQLLIYRMSNLASGVPDRFSGSGSGTAFTLRISRVEAEDVGVYYCMQHLESPYTFGGGTKLEIK	s⁻¹	2.26e-05
Mab032 (antibody, V domains shown) VH: EVQLQQSVAELVRPGASVRLSCTGSGFNIENTYMHWLKQRPEQGLEWIGRIDPADGDTQYAPKFQGKATITTDTSSNTAYLQLSSLTSEDTAIYYCARYGNYLFYYSMDYWGQGTSVTVSS VL: DIVMTQAAPSVPVTPGESVSISCRSSKSLLHSNGNTYLYWFLQRPGQSPQLLIYRMSNLASGVPDRFSGSGSATAFTLRISRVEAEDVGIYYCMQHLEYPYTFGGGTKLEIK	s⁻¹	2.45e-05

## Input Please look up its koff: Tab1 (Z270) (antibody, V domains shown) VH: EVQLVESGGGLVKPGGSLRLSCAASGFTFSSHSMNWVRQAPGKGLEWVSAISSSSSYIYYADSVKGRFTISRDNAKNSLYLQMNSLRAEDTAVYYCAREEWGLPFDYWGQGTLVTVSS VL: AIQLTQSPSSLSASVGDRVTITCRASQGISSALAWYQQKPGKAPKLLIYDASSLKSGVPSRFSGSGSGTDFTLTISSLQPEDFATYYCQQFNSYPLTFGQGTRLEIK
## Output 0.000189
